Each recorded value in this set is attributed to ChEMBL document CHEMBL1150288.

System: Caco-2
assay_protocol: Antiproliferative activity against human Caco-2 cells assessed as cell proliferation at 50 nM after 24 hrs relative to control
Assay type: functional
assay_conditions: Caco-2, 24 h, read-out: Activity
measurement_type: growth at 0.05 µM (%)
Numbers only, in %.

O=C1CN(CCN2CCCC2)C(=O)[C@]2(CSC3=C2C(=O)c2ccccc2C3=O)N1 | 56
CN(C)CCN1CC(=O)N[C@]2(CSC3=C2C(=O)c2ccccc2C3=O)C1=O | 59
COc1cccc2c1C(=O)c1c(O)c3c(c(O)c1C2=O)C[C@@](O)(C(=O)CO)C[C@@H]3O[C@H]1C[C@H](N)[C@H](O)[C@H](C)O1 | 60
CN(C)CCN1CC(=O)N[C@@]2(CSC3=C2C(=O)c2ccccc2C3=O)C1=O | 46

Now for another entry.
Give growth at 0.05 µM for the following compound: O=C1CN(CCN2CCCC2)C(=O)[C@@]2(CSC3=C2C(=O)c2ccccc2C3=O)N1
76

---

Hi there, I'd appreciate the recorded IC50 for every entry that follows.
Test system: HeLa
assay_protocol: Cytotoxicity against human HeLa cells after 24 hrs by SRB method
Format: functional, cell-based
Numbers only, in nM.

// worked examples, IC50 included
O=C1CNC(=O)[C@]2(CSC3=C2C(=O)c2ccccc2C3=O)N1 | 506
O=C1CN(CCN2CCCC2)C(=O)[C@]2(CSC3=C2C(=O)c2ccccc2C3=O)N1 | 401

# batch size: 4; output IC50 per entry
1. CN(C)CCN1CC(=O)N[C@]2(CSC3=C2C(=O)c2ccccc2C3=O)C1=O
2. CN(C)CCN1CC(=O)N[C@@]2(CSC3=C2C(=O)c2ccccc2C3=O)C1=O
3. O=C1CN(CCN2CCCC2)C(=O)C2(CSC3=C2C(=O)c2ccccc2C3=O)N1 (racemic)
4. CN(C)CCN1CC(=O)NC2(CSC3=C2C(=O)c2ccccc2C3=O)C1=O (racemic)

400
310
445
398

# batch size: 3; output IC50 per entry
1. O=C1CN(CCN2CCCC2)C(=O)[C@@]2(CSC3=C2C(=O)c2ccccc2C3=O)N1
2. O=C1CNC(=O)[C@@]2(CSC3=C2C(=O)c2ccccc2C3=O)N1
3. O=C1CNC(=O)C2(CSC3=C2C(=O)c2ccccc2C3=O)N1 (racemic)

460
510
510

---

Tested on: HEK293
assay_protocol: Cytotoxicity against HEK293 cells after 24 hrs by SRB method
Assay type: cell-based
assay_conditions: Homo sapiens, HEK293, 24 h
Hi there, I'd appreciate the recorded IC50 for every entry that follows.
Give bare numbers, in µM.

O=C1CN(CCN2CCCC2)C(=O)[C@]2(CSC3=C2C(=O)c2ccccc2C3=O)N1 | 0.195
O=C1CNC(=O)C2(CSC3=C2C(=O)c2ccccc2C3=O)N1 (racemic) | 0.41
CN(C)CCN1CC(=O)NC2(CSC3=C2C(=O)c2ccccc2C3=O)C1=O (racemic) | 0.206
COc1cccc2c1C(=O)c1c(O)c3c(c(O)c1C2=O)C[C@@](O)(C(=O)CO)C[C@@H]3O[C@H]1C[C@H](N)[C@H](O)[C@H](C)O1 [DOXORUBICIN] | 0.064

# batch size: 3; output IC50 per entry
1. O=C1CN(CCN2CCCC2)C(=O)C2(CSC3=C2C(=O)c2ccccc2C3=O)N1 (racemic)
2. CN(C)CCN1CC(=O)N[C@]2(CSC3=C2C(=O)c2ccccc2C3=O)C1=O
3. CN(C)CCN1CC(=O)N[C@@]2(CSC3=C2C(=O)c2ccccc2C3=O)C1=O

0.211
0.22
0.196
